Where do these numbers come from? They come from ChEMBL document CHEMBL4613300.

Test system: A-375
MEASUREMENT PROTOCOL: Antiproliferative activity against human A375 cells assessed as reduction in cell viability incubated for 72 hrs by trypan blue or crystal violet staining based assay
Type: functional
SETUP CONDITIONS: Homo sapiens, A-375, 72 h; read-out: IC50
ASSAY READOUT: IC50 (µM)

CCOC(=O)c1c(-c2ccccc2)csc1NC(NC(=O)c1ccc(Br)cc1)C(Cl)(Cl)Cl (stereo not drawn) ... 2

[I] CCOC(=O)c1c(-c2ccccc2)csc1NC(NC(=O)c1ccccc1)C(Cl)(Cl)Cl (stereo not drawn)
[II] O=C(NC1CCCc2ccccc21)c1cnn2c(C(F)F)cc(C3CC3)nc12 (stereo not drawn)
// compare measured IC50, left I , right II , return larger The response must carry the label of the picked entry.
I
(I: 12 µM, II: 5 µM)

---

TARGET UNDER TEST: Zinc finger protein GLI1 (Mus musculus) (UniProt P47806)
Sequence (P47806 whole entry): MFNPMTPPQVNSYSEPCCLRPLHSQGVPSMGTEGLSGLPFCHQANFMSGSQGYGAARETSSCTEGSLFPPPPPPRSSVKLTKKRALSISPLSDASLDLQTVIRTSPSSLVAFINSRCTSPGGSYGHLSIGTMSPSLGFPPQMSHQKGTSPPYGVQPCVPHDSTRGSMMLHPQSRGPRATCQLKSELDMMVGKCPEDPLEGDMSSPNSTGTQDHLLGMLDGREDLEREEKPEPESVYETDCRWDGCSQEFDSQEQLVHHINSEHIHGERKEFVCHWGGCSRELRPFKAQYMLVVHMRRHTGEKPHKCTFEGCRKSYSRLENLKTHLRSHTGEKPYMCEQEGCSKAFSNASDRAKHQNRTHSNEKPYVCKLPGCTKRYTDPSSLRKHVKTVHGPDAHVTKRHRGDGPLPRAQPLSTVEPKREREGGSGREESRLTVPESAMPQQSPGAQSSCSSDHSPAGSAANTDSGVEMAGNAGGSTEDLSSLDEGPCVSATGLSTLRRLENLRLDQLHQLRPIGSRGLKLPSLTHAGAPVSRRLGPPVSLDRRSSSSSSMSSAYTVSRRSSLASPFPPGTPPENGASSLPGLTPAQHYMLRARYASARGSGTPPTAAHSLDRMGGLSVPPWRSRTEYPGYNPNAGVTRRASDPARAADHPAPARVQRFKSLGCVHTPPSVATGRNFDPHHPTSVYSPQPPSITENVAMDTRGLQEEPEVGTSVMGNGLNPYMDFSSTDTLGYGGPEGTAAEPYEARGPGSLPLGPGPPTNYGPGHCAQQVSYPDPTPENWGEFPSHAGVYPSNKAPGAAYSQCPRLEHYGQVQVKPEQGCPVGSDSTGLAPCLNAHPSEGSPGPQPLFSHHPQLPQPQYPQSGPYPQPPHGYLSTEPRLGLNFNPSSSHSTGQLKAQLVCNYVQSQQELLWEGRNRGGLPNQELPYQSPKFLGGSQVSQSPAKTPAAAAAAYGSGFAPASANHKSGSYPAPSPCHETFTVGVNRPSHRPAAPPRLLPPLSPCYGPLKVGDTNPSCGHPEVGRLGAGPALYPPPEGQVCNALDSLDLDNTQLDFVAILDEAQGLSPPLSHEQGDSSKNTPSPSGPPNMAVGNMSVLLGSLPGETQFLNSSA
MEASUREMENT PROTOCOL: Inhibition of GLI1 transcriptional activity in HH-responsive mouse NIH3T3 cells assessed as reduction in SAG-induced luciferase activity at 5 uM incubated for 48 hrs by luciferase reporter gene assay relative to control
Format: cell-based
ASSAY READOUT: inhibition (%)

O=C(NC1CCCc2ccccc21)c1cnn2c(C(F)(F)F)cc(-c3ccco3)nc12 (stereo not given) ... 66
CCOC(=O)c1c(-c2ccccc2)csc1NC(NC(=O)c1ccc([N+](=O)[O-])cc1)C(Cl)(Cl)Cl (stereo not given) ... 74
CCOC(=O)c1c(-c2ccccc2)csc1NC(NC(=O)c1cccc2ccccc12)C(Cl)(Cl)Cl (stereo not given) ... 7
COc1cc(OC)c2c(=O)c(-c3ccc(OCC=C(C)C)c(OCC=C(C)C)c3)coc2c1 ... 46
O=C(NC1CCCc2ccccc21)c1cnn2c(C(F)F)cc(C3CC3)nc12 (stereo not given) ... 54
CCOC(=O)c1c(-c2ccccc2)csc1NC(NC(=O)c1cccc(Cl)c1)C(Cl)(Cl)Cl (stereo not given) ... 81
CCOC(=O)c1c(-c2ccccc2)csc1NC(NC(=O)c1ccco1)C(Cl)(Cl)Cl (stereo not given) ... 51
CC1(C)CC(NC(=O)c2cnn3c(C(F)F)cc(C4CC4)nc23)c2ccccc2O1 (stereo not given) ... 40

[A] CCOC(=O)c1c(-c2ccccc2)csc1NC(NC(=O)CC)C(Cl)(Cl)Cl (stereo not given)
[B] Cc1cc(C(F)F)n2ncc(C(=O)NC3CC(C)(C)Oc4ccccc43)c2n1 (stereo not given)
[C] CCOC(=O)c1c(-c2ccccc2)csc1NC(NC(=O)c1ccc(Br)cc1)C(Cl)(Cl)Cl (stereo not given)
# rank by inhibition, ascending (min first) // list labels; follow requested order
B, A, C
(B: 0%, A: 42%, C: 78%)

---

The following molecules are listed with their measured pIC50 values.
Test system: Daoy
MEASUREMENT PROTOCOL: Antiproliferative activity against human DaOY cells assessed as reduction in cell viability incubated for 72 hrs by trypan blue or crystal violet staining based assay
Type: functional
SETUP CONDITIONS: Homo sapiens, Daoy, 72 h; read-out: IC50
Interpret pIC50 as the negative base-10 log of the concentration measured in mol/L.

Illustrative cases are given below, each with its answer.
O=C(NC1CCCc2ccccc21)c1cnn2c(C(F)(F)F)cc(-c3ccco3)nc12 (centres undefined) ... 5.24
CCOC(=O)c1c(-c2ccccc2)csc1NC(NC(C)=O)C(Cl)(Cl)Cl (centres undefined) ... 5.55
COc1c(O)cc2oc3cc(O)c(CC=C(C)C)c(O)c3c(=O)c2c1CC=C(C)C ... 5.72

Here is the next item to consider.
Query (molecule): CCOC(=O)c1c(-c2ccccc2)csc1NC(NC(=O)c1ccc(Br)cc1)C(Cl)(Cl)Cl (centres undefined) ; field requested: pIC50
5.47
